# ASSAY_TEXT: Cmax in Sprague-Dawley rat at 10 mg/kg, po
# Assay type: ADME, organism-based
# TEST_CONDITIONS: in vivo
PROPERTY: Cmax
Quick note: unit goes after the number.

Lookup: Please report the recorded Cmax for "Cn1c(=O)c2c(ncn2CCC(=O)NNC(=O)c2cc3nccc(-c4ccc(OC(F)F)c(OCC5CC5)c4)n3n2)n(C)c1=O" .
Found: 14.4 ng/mL

* * *

# TARGET_UNDER_TEST: Dual 3',5'-cyclic-AMP and -GMP phosphodiesterase 11A (Homo sapiens, UniProt Q9HCR9)
# Sequence (Q9HCR9 whole entry): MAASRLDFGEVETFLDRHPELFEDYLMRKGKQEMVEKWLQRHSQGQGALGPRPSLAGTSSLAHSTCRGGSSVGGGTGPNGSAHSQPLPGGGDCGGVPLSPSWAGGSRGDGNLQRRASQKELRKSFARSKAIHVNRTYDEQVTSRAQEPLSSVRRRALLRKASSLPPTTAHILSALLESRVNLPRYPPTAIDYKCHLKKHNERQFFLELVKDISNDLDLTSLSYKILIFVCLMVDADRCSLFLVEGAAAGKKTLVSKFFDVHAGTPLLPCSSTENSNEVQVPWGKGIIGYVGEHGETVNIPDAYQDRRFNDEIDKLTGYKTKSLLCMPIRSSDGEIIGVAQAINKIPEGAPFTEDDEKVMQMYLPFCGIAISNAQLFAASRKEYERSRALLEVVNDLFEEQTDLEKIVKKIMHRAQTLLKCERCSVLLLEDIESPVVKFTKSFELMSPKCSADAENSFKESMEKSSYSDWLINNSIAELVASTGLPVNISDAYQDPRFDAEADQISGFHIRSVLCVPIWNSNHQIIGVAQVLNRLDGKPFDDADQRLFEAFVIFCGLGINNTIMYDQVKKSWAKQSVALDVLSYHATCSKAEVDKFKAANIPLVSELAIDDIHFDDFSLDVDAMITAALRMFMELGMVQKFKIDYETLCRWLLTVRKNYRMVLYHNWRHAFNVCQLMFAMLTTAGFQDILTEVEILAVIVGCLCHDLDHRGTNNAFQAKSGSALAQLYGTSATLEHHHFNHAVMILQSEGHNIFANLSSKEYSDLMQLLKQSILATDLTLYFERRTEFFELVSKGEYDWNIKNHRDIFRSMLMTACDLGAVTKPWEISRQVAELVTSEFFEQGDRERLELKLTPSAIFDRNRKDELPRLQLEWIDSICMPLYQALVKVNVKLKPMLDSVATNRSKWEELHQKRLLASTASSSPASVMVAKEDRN
pIC50: −log10 of the molar value.
PROPERTY: pIC50

Lookup: Please report the recorded pIC50 for "Cn1c(=O)c2c(ncn2CCC(=O)NNC(=O)c2cc3nccc(-c4ccc(OC(F)F)c(OCC5CC5)c4)n3n2)n(C)c1=O" .
Found: < 4.30

* * *

# TARGET_UNDER_TEST: Cone cGMP-specific 3',5'-cyclic phosphodiesterase subunit alpha' (Homo sapiens)
# Sequence (P51160 whole entry): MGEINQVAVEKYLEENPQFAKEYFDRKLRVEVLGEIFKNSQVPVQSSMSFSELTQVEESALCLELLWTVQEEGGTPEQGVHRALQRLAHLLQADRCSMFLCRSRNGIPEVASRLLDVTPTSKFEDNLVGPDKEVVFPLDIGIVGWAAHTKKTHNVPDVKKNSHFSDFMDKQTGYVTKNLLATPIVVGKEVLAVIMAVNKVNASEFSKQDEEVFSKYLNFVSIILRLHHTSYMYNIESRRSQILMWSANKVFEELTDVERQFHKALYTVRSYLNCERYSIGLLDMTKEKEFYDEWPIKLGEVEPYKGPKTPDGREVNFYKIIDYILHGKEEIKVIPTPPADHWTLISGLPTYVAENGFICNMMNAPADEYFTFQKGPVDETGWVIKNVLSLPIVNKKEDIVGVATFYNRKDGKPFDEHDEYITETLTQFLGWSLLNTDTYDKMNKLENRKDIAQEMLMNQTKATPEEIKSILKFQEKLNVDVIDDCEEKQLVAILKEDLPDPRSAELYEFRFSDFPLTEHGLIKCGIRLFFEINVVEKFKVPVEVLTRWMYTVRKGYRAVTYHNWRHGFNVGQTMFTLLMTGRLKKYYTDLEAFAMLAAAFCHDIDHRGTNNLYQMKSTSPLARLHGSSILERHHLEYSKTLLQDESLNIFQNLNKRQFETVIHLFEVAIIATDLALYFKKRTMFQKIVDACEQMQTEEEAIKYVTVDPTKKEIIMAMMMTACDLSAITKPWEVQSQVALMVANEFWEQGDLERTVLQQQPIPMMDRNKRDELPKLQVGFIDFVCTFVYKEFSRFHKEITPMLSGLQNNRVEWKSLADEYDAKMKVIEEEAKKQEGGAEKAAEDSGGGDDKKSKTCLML
# ASSAY_TEXT: Inhibition of PDE6C (unknown origin)
pIC50: −log10 of the molar value.
PROPERTY: pIC50

Lookup: Please report the recorded pIC50 for "Cn1c(=O)c2c(ncn2CCC(=O)NNC(=O)c2cc3nccc(-c4ccc(OC(F)F)c(OCC5CC5)c4)n3n2)n(C)c1=O" .
Found: < 4.30

* * *

# TARGET_UNDER_TEST: 3',5'-cyclic-AMP phosphodiesterase 4D (Homo sapiens, UniProt Q08499)
# Sequence (Q08499 whole entry): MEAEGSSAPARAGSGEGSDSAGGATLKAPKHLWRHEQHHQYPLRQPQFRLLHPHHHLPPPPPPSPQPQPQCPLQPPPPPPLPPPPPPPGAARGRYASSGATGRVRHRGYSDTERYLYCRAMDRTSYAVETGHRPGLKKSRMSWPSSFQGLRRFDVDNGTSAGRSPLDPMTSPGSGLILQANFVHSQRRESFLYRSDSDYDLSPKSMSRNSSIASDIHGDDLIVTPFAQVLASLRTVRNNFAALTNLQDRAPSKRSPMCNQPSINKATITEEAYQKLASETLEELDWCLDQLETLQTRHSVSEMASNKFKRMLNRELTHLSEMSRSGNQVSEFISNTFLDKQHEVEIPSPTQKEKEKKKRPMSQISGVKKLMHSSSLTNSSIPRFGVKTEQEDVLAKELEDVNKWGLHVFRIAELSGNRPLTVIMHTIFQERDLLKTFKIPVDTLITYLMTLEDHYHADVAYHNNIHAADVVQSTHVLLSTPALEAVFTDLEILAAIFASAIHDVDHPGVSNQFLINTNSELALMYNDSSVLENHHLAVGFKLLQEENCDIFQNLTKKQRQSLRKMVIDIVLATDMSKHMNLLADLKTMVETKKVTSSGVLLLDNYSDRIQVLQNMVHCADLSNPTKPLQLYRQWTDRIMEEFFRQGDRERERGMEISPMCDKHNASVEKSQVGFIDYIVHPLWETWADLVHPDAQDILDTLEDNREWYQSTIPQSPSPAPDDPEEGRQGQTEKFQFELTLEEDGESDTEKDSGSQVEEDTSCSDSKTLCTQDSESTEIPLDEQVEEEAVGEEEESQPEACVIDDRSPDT
# ASSAY_TEXT: Inhibition of PDE4D (unknown origin) at 1 uM relative to control
PROPERTY: inhibition (%)
Numbers only, in %.

{"SMILES_ENTRY": "Cn1c(=O)c2c(ncn2CCC(=O)NNC(=O)c2cnn3c(-c4ccc(OC(F)F)c(OCC5CC5)c4)ccnc23)n(C)c1=O", "TARGET_UNDER_TEST": "3',5'-cyclic-AMP phosphodiesterase 4D (Homo sapiens, UniProt Q08499)", "PROPERTY": "inhibition", "UNIT_ABBREV": "%", "MEAS_VALUE": 38.8}
{"SMILES_ENTRY": "Cn1c(=O)c2c(ncn2CCC(=O)NNC(=O)c2coc(-c3ccc(OC(F)F)c(OCC4CC4)c3)n2)n(C)c1=O", "TARGET_UNDER_TEST": "3',5'-cyclic-AMP phosphodiesterase 4D (Homo sapiens, UniProt Q08499)", "PROPERTY": "inhibition", "UNIT_ABBREV": "%", "MEAS_VALUE": 63}
{"SMILES_ENTRY": "Cn1c(=O)c2c(ncn2CCC(=O)NNC(=O)c2csc(-c3ccc(OC(F)F)c(OCC4CC4)c3)n2)n(C)c1=O", "TARGET_UNDER_TEST": "3',5'-cyclic-AMP phosphodiesterase 4D (Homo sapiens, UniProt Q08499)", "PROPERTY": "inhibition", "UNIT_ABBREV": "%", "MEAS_VALUE": 87.5}

Now for a further compound.
Lookup: Please report the recorded inhibition for "Cn1c(=O)c2c(ncn2CCC(=O)NNC(=O)c2c[nH]c(-c3ccc(OC(F)F)c(OCC4CC4)c3)n2)n(C)c1=O" .
Found: 96.4

* * *

# ASSAY_TEXT: AUC (0 to infinity) in Sprague-Dawley rat at 10 mg/kg, po
# Assay type: ADME, organism-based
# TEST_CONDITIONS: in vivo
PROPERTY: AUC(0-inf) (ng·h/mL)
Answers are plain numbers, in ng·h/mL.

Lookup: Please report the recorded AUC(0-inf) for "Cn1c(=O)c2c(ncn2CCC(=O)NNC(=O)c2cc3nccc(-c4ccc(OC(F)F)c(OCC5CC5)c4)n3n2)n(C)c1=O" .
Found: 26.8

* * *

# TARGET_UNDER_TEST: 3',5'-cyclic-AMP phosphodiesterase 4D (Homo sapiens, UniProt Q08499)
# ASSAY_TEXT: Inhibition of PDE4D (unknown origin) at 1 uM relative to control
PROPERTY: inhibition (%)
Answers are plain numbers, in %.

Example results:
{"SMILES_ENTRY": "Cn1c(=O)c2c(ncn2CCC(=O)NNC(=O)c2c[nH]c(-c3ccc(OC(F)F)c(OC(F)F)c3)n2)n(C)c1=O", "TARGET_UNDER_TEST": "3',5'-cyclic-AMP phosphodiesterase 4D (Homo sapiens, UniProt Q08499)", "UNIT_ABBREV": "%", "inhibition": 82.1}
{"SMILES_ENTRY": "Cn1c(=O)c2c(ncn2CCC(=O)NNC(=O)c2cccc3[nH]c(-c4ccc(OC(F)F)c(OCC5CC5)c4)nc23)n(C)c1=O", "TARGET_UNDER_TEST": "3',5'-cyclic-AMP phosphodiesterase 4D (Homo sapiens, UniProt Q08499)", "UNIT_ABBREV": "%", "inhibition": 96.9}

Here are 6 molecules. What values of inhibition were reported for them?
1. Cn1c(=O)c2c(ncn2CCCC(=O)NNC(=O)c2cccc3[nH]c(-c4ccc(OC(F)F)c(OCC5CC5)c4)nc23)n(C)c1=O
2. Cn1c(=O)c2c(ncn2CCCC(=O)NNC(=O)c2coc(-c3ccc(OC(F)F)c(OCC4CC4)c3)n2)n(C)c1=O
3. Cn1c(=O)c2c(ncn2CCCC(=O)NNC(=O)c2csc(-c3ccc(OC(F)F)c(OCC4CC4)c3)n2)n(C)c1=O
4. Cn1c(=O)c2c(ncn2CCCC(=O)NNC(=O)c2cccc3[nH]c(-c4ccc(OC(F)F)c(OC(F)F)c4)nc23)n(C)c1=O
5. Cn1c(=O)c2c(ncn2CCC(=O)NNC(=O)c2cccc3[nH]c(-c4ccc(OC(F)F)c(OC(F)F)c4)nc23)n(C)c1=O
6. Cn1c(=O)c2c(nc(Br)n2CCCC(=O)NNC(=O)c2cc3nccc(-c4ccc(OC(F)F)c(OCC5CC5)c4)n3n2)n(C)c1=O

Found:
1. 96.8
2. 92.4
3. 98.4
4. 97.9
5. 92.6
6. 94.7

Here are 4 molecules. What values of inhibition were reported for them?
1. Cn1c(=O)c2c(ncn2CCCC(=O)NNC(=O)c2cnn3c(-c4ccc(OC(F)F)c(OCC5CC5)c4)ccnc23)n(C)c1=O
2. Cn1c(=O)c2c(nc(NCc3ccccc3)n2CCCC(=O)NNC(=O)c2cccc3[nH]c(-c4ccc(OC(F)F)c(OCC5CC5)c4)nc23)n(C)c1=O
3. Cn1c(=O)c2c(nc(Br)n2CCCC(=O)NNC(=O)c2coc(-c3ccc(OC(F)F)c(OCC4CC4)c3)n2)n(C)c1=O
4. Cn1c(=O)c2c(nc(NCc3ccccc3)n2CCCC(=O)NNC(=O)c2cc3nccc(-c4ccc(OC(F)F)c(OCC5CC5)c4)n3n2)n(C)c1=O

Found:
[85.7, 85.7, 85.3, 43]

Here are 2 molecules. What values of inhibition were reported for them?
1. Cn1c(=O)c2c(nc(NCc3ccccc3)n2CCCC(=O)NNC(=O)c2cccc3[nH]c(-c4ccc(OC(F)F)c(OC(F)F)c4)nc23)n(C)c1=O
2. Cn1c(=O)c2c(nc(Br)n2CCCC(=O)NNC(=O)c2cccc3[nH]c(-c4ccc(OC(F)F)c(OC(F)F)c4)nc23)n(C)c1=O

Found:
1: 92.4; 2: 96.8

* * *

# TARGET_UNDER_TEST: cAMP and cAMP-inhibited cGMP 3',5'-cyclic phosphodiesterase 10A (Homo sapiens)
# Sequence (Q9Y233 whole entry): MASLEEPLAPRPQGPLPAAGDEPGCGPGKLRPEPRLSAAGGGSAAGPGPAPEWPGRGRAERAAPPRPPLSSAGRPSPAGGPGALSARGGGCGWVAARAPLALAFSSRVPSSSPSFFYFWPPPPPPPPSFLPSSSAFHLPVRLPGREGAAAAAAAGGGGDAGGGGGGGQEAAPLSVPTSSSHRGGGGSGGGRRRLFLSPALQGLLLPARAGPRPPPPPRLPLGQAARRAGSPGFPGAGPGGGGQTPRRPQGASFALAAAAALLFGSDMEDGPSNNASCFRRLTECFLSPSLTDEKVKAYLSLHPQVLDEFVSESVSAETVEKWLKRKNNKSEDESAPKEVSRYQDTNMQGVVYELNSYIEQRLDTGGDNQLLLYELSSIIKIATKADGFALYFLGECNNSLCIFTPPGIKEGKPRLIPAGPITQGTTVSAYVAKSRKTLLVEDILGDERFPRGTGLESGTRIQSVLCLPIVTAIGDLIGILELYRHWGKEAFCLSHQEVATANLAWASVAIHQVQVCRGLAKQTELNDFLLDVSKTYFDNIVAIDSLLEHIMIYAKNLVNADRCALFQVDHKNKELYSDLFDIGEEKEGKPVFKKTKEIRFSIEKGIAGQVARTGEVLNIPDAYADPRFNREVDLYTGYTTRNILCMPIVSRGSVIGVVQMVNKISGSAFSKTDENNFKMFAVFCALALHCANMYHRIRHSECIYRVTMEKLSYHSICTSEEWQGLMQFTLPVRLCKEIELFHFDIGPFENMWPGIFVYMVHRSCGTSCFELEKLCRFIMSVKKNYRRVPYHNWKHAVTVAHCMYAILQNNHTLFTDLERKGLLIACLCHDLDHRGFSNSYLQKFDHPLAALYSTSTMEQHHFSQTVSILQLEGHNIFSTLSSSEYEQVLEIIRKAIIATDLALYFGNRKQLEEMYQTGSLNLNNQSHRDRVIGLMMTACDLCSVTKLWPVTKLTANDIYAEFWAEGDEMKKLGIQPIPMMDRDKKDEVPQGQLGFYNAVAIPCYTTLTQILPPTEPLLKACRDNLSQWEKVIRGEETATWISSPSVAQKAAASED
PROPERTY: IC50 (nM)
One number for each entry, in nM.

Lookup: Form: Entry = "Cn1c(=O)c2c(ncn2CCC(=O)NNC(=O)c2cc3nccc(-c4ccc(OC(F)F)c(OCC5CC5)c4)n3n2)n(C)c1=O" | System = cAMP and cAMP-inhibited cGMP 3',5'-cyclic phosphodiesterase 10A (Homo sapiens) | IC50 = ____
Found: 1120

* * *

# ASSAY_TEXT: AUC (0 to t) in Sprague-Dawley rat at 10 mg/kg, po
# Format: ADME, organism-based
# TEST_CONDITIONS: in vivo
PROPERTY: AUC(0-t) (ng·h/mL)
One number for each entry, in ng·h/mL.

Lookup: Please report the recorded AUC(0-t) for "Cn1c(=O)c2c(ncn2CCC(=O)NNC(=O)c2cc3nccc(-c4ccc(OC(F)F)c(OCC5CC5)c4)n3n2)n(C)c1=O" .
Found: 25.6

* * *

# TARGET_UNDER_TEST: Cytochrome P450 2D6 (Homo sapiens, UniProt P10635)
# Sequence (P10635 whole entry): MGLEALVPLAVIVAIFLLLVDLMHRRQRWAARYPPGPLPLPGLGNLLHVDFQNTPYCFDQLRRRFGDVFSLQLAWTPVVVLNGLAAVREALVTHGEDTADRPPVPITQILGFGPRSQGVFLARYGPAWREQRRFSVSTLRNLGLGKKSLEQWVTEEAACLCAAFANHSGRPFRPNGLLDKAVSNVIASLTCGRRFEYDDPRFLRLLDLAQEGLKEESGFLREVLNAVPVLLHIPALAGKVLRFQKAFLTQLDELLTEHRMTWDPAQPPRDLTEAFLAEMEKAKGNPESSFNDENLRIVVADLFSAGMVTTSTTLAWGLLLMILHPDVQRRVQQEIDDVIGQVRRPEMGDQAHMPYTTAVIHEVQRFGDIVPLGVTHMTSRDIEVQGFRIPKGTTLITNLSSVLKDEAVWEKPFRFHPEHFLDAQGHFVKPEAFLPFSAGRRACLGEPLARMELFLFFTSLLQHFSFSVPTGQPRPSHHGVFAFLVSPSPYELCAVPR
PROPERTY: IC50

Lookup: Please report the recorded IC50 for "Cn1c(=O)c2c(ncn2CCC(=O)NNC(=O)c2cc3nccc(-c4ccc(OC(F)F)c(OCC5CC5)c4)n3n2)n(C)c1=O" .
Found: > 50 µM

* * *

# ASSAY_TEXT: Tmax in Sprague-Dawley rat at 10 mg/kg, po
# Format: ADME, organism-based
# TEST_CONDITIONS: in vivo
PROPERTY: Tmax
Quick note: unit goes after the number.

Lookup: Please report the recorded Tmax for "Cn1c(=O)c2c(ncn2CCC(=O)NNC(=O)c2cc3nccc(-c4ccc(OC(F)F)c(OCC5CC5)c4)n3n2)n(C)c1=O" .
Found: 15 min
